Read-out: Interleukin-8 (IL8), CXCL8 (gene 3576)
Experiment: BSK_3C_IL8: BioMAP Diversity Plus: 3C Assay for Interleukin-8 (IL8) Biomarker Activity (AID 2283020)
Settings: primary human endothelial cells (HUVEC); actives raise or lower the signal
Experimental: BSK_3C is a cell-based, multiplexed-readout assay that uses umbilical vein endothelium, a human vascular primary cell, with measurements taken at 24 hours after chemical dosing in a 96-well plate.BSK_3C_IL8 is an assay component measured in the BSK_3C assay. It measures IL-8 antibody related to regulation of gene expression using ELISA technology.Data from the assay component BSK_3C_IL8 was analyzed into 1 assay endpoint. […]
The source made the active and inactive calls. The calls were made as follows: active = hit-call score of the fitted dose curve at least 0.9, where 1 is the maximum; inactive = score below 0.9.
endpoint: AC50

CCOP(=S)(OCC)SCSP(=S)(OCC)OCC | inactive
Cn1sc(Cl)cc1=O | inactive
COC[C@H](C)N(C(=O)CCl)c1c(C)csc1C | inactive
CN(C)N=O | inactive
CCOP(=S)(OCC)Oc1ccc(S(C)=O)cc1 (stereo not drawn) | inactive
Cc1ccccc1N | inactive
CC(C)(c1ccccc1)c1ccc(O)c(C(C)(C)c2ccccc2)c1 | 10.1 µM (active)
ClC(Cl)=C(Cl)C(Cl)=C(Cl)Cl | 32.4 µM (active)
C[C@@H]1C[C@@H]([C@H](O)CC2CC(=O)NC(=O)C2)C(=O)[C@@H](C)C1 | 6.06 µM (active)
C=CC(=O)OCCCCCC(C)C | inactive

Can you give me AC50 for all of these, one by one?
1. O=S(=O)(c1ccc(Cl)cc1)c1ccc(Cl)cc1
2. CCOP(=S)(OCC)SCCS(=O)(=O)CC
3. O=C(Nc1ccc2[nH]ccc2c1)c1cc2cc(F)ccc2n1Cc1cccc(F)c1
4. CCCCCCCCc1ccc(O)cc1
5. COc1cc(OC)nc(NC(=O)NS(=O)(=O)c2ncccc2C(=O)N(C)C)n1

a:
inactive
inactive
6.43 µM (active)
34.6 µM (active)
inactive

Can you give me AC50 for all of these, one by one?
1. COP(=S)(OC)Oc1c(Cl)cc(C)cc1Cl
2. ClC1(Cl)C2(Cl)C3(Cl)C4(Cl)C(Cl)(Cl)C5(Cl)C3(Cl)C1(Cl)C5(Cl)C24Cl (stereo not drawn)
3. Nc1ccc(-c2ccc(N)c(Cl)c2)cc1Cl
4. CC(C)(OO)c1ccccc1

a:
1. inactive
2. inactive
3. inactive
4. inactive

Can you give me AC50 for all of these, one by one?
1. CCNc1nc(NC(C)(C)C)nc(SC)n1
2. NC(=O)O
3. CCCCCCCCC(=O)NCc1ccc(O)c(OC)c1
4. COC(=O)c1sccc1S(=O)(=O)NC(=O)Nc1nc(C)nc(OC)n1
5. CC(C)(C)CC(C)(C)c1ccc(O)cc1
6. O=C(O)C(Cl)(Cl)Cl
7. COP(=S)(OC)Oc1ccc(S(=O)(=O)N(C)C)cc1
8. C(=NC1CCCCC1)=NC1CCCCC1

a:
inactive
inactive
inactive
inactive
10.1 µM (active)
inactive
inactive
20 µM (active)

Can you give me AC50 for all of these, one by one?
1. CC1(C)Cc2cccc(O)c2O1
2. CCSC(C)CC1CC(=O)C(C(CC)=NOC/C=C/Cl)=C(O)C1 (stereo not drawn)
3. O=C(O)CCC(F)(C(F)(F)F)C(F)(F)F

a:
["inactive", "inactive", "inactive"]

Can you give me AC50 for all of these, one by one?
1. C[C@]12CCC(=O)C[C@@H]1CC[C@@H]1[C@@H]2CC[C@]2(C)[C@@H](O)CC[C@@H]12
2. COC(=O)Cc1ccccc1
3. CC(C)(C)c1cc(O)ccc1O

a:
21.5 µM (active)
inactive
inactive

Can you give me AC50 for all of these, one by one?
1. Nc1ncc([N+](=O)[O-])s1
2. O=Cc1cccc(Oc2ccccc2)c1
3. ClC1=C(Cl)[C@]2(Cl)[C@H]3[C@H]([C@H]4C=C[C@H]3C4)[C@@]1(Cl)C2(Cl)Cl
4. CC(=O)C(Cl)C(=O)N(C)C (stereo not drawn)
5. Oc1cccc2cccnc12

a:
inactive
inactive
inactive
11.7 µM (active)
inactive
